Tested on: Human red blood cells (RBCs)
ASSAY_TEXT: Hemolytic activity
Type: cell-based
EXPERIMENTAL_PARAMETERS: at 100 μg/ml, Tables 22-23
Experimental: Each assay was carried out in 96-well culture tissue plates. Four wells per plate contain 125 μl of a non-peptide positive control (1% Triton in de-ionized water), and four wells per plate contain 125 μl of a control blank, phosphate buffered saline (PBS). The hemolytic peptide melittin was used as comparative control. […] The release of hemoglobin resulting from the cell lysis was determined by measuring the OD at 414 nm of 100 μl of the supernatant.
Ends that are not written are not given here.
% hemolysis at 100 μg/ml: recorded values
MEASUREMENT_TYPE: % hemolysis at 100 μg/ml (%)

1) Ac-RRWWCI-NH2 [Ac-RRWWCI-NH2] ... 8.3
2) Ac-RRWWCR-NH2 [Ac-RRWWCR-NH2] ... 0.0
3) Ac-RRWWCF-NH2 [Ac-RRWWCF-NH2] ... 3.3
4) Cecropin A (KWKLFKKIEKVGQNIRDGIIKAGPAVAVVGQATQIAK; ends and bridges not checked; UniProt P01507 27-63, looked up) [reference compound] ... 0.0
5) Ac-RRWWCQ-NH2 [Ac-RRWWCQ-NH2] ... 0.0
6) Ac-RRWWCT-NH2 [Ac-RRWWCT-NH2] ... 0.5
7) Ac-RRWWCD-NH2 [Ac-RRWWCD-NH2] ... 0.3
8) Ac-RRWWCP-NH2 [Ac-RRWWCP-NH2] ... 0.0
9) Ac-RRWWCK-NH2 [Ac-RRWWCK-NH2] ... 0.5
10) Ac-RRWWCH-NH2 [Ac-RRWWCH-NH2] ... 0.0
11) Ac-RRWWCG-NH2 [Ac-RRWWCG-NH2] ... 1.9
12) Ac-RRWWCE-NH2 [Ac-RRWWCE-NH2] ... 0.0

====

HD50 (concentration necessary to lyse 50% of the cells): recorded values
Tested on: Human red blood cells (RBCs)
ASSAY_TEXT: Hemolytic activity
Assay type: cell-based
EXPERIMENTAL_PARAMETERS: Tables 18-21
Square brackets hold non-standard residues; d marks the D form. Peptide text beside a SMILES is read from it. * marks the point of attachment. Fmoc = O=C(OCC1c2ccccc2-c2ccccc21)*
MEASUREMENT_TYPE: HD50 (concentration necessary to lyse 50% of the cells) (µg/mL)

1) NCCCC[C@H](NC(=O)OCC1c2ccccc2-c2ccccc21)C(=O)N[C@@H](Cc1c[nH]c2ccccc12)C(=O)N[C@@H](CCCCN)C(=O)N[C@H](CS)C(N)=O [(KFmoc)WKc-NH2] (Fmoc-KWK[dC]-NH2) ... 25
2) C[C@@H](O)[C@H](NC(=O)[C@H](Cc1ccc(O)cc1)NC(=O)[C@H](Cc1c[nH]c2ccccc12)NC(=O)[C@H](CCCCN)NC(=O)OCC1c2ccccc2-c2ccccc21)C(N)=O [(KFmoc)WYT-NH2] (Fmoc-KWYT-NH2) ... 53
3) NCCCC[C@H](NC(=O)OCC1c2ccccc2-c2ccccc21)C(=O)N[C@@H](Cc1c[nH]c2ccccc12)C(=O)N[C@@H](CCCCN)C(=O)N[C@H](Cc1ccccc1)C(N)=O [(KFmoc)WKf-NH2] (Fmoc-KWK[dF]-NH2) ... 126
4) N=C(N)NCCC[C@H](NC(=O)[C@@H](Cc1ccccc1)NC(=O)[C@H](Cc1c[nH]c2ccccc12)NC(=O)[C@H](CCCCN)NC(=O)OCC1c2ccccc2-c2ccccc21)C(N)=O [(KFmoc)WfR-NH2] (Fmoc-KW[dF]R-NH2) ... 122
5) NCCCC[C@H](NC(=O)OCC1c2ccccc2-c2ccccc21)C(=O)N[C@@H](Cc1c[nH]c2ccccc12)C(=O)N[C@@H](Cc1ccc(O)cc1)C(=O)N1CCC[C@H]1C(N)=O [(KFmoc)WYP-NH2] (Fmoc-KWYP-NH2) ... 97
6) NCCCC[C@H](NC(=O)OCC1c2ccccc2-c2ccccc21)C(=O)N[C@@H](Cc1c[nH]c2ccccc12)C(=O)N[C@@H](Cc1ccc(O)cc1)C(=O)N[C@H](CO)C(N)=O [(KFmoc)WYs-NH2] (Fmoc-KWY[dS]-NH2) ... 27
7) CC[C@@H](C)[C@@H](NC(=O)[C@@H](CS)NC(=O)[C@H](CCCCN)NC(=O)OCC1c2ccccc2-c2ccccc21)C(=O)N[C@H](C)C(N)=O [(KFmoc)cia-NH2] (Fmoc-K[dC][dI][dA]-NH2) ... 77
8) CC(C)C[C@@H](NC(=O)[C@@H](Cc1ccccc1)NC(=O)[C@H](Cc1c[nH]c2ccccc12)NC(=O)[C@H](CCCCN)NC(=O)OCC1c2ccccc2-c2ccccc21)C(N)=O [(KFmoc)Wfl-NH2] (Fmoc-KW[dF][dL]-NH2) ... 197
9) NCCCC[C@H](NC(=O)OCC1c2ccccc2-c2ccccc21)C(=O)N[C@@H](Cc1c[nH]c2ccccc12)C(=O)N[C@@H](CCCCN)C(=O)N1CCC[C@@H]1C(N)=O [(KFmoc)WKp-NH2] (Fmoc-KWK[dP]-NH2) ... 437
10) CC(C)C[C@@H](NC(=O)[C@H](CCCCN)NC(=O)[C@H](Cc1c[nH]c2ccccc12)NC(=O)[C@H](CCCCN)NC(=O)OCC1c2ccccc2-c2ccccc21)C(N)=O [(KFmoc)WKl-NH2] (Fmoc-KWK[dL]-NH2) ... 166
